test system: Mus musculus; assay: Inhibitory effect on vascular permeability in mice [inhibitory rate of compound 100 mg/kg administered perorally]/[inhibitory rate of diclofenac-Na 25 mg/kg administered perorally]; format: functional
// reported inhibition ratio vs diclofenac per item
Form: value (number only, do not type unit).

Please review the following examples before continuing.
INSERT INTO measurements (compound, metric, experimental_result) VALUES
  ('O=C(O)Cc1ccc2c(c1)CCCN2', 'inhibition ratio vs diclofenac', 1.06),
  ('O=C(O)Cc1cc(Cl)c2c(c1)CCC(c1ccccc1F)N2 (stereo not drawn)', 'inhibition ratio vs diclofenac', 2.09),
  ('CC1(C)CCc2cc(CC(=O)O)cc(Cl)c2N1', 'inhibition ratio vs diclofenac', 1.22),
  ('CC(C)C1CCc2cc(CC(=O)O)cc(Cl)c2N1 (stereo not drawn)', 'inhibition ratio vs diclofenac', 1.1),
  ('CCCC1CCc2cc(CC(=O)O)cc(Cl)c2N1 (stereo not drawn)', 'inhibition ratio vs diclofenac', 1.59),
  ('COc1ccc(C2CCc3cc(CC(=O)O)cc(Cl)c3N2)cc1 (stereo not drawn)', 'inhibition ratio vs diclofenac', 0.62);

[ask] Return inhibition ratio vs diclofenac (reported value) for this compound: O=C(O)Cc1cc(Cl)c2c(c1)CCCN2
[reply] 1.44

[ask] Name the recorded inhibition ratio vs diclofenac of the compound listed here: CC1CCc2cc(CC(=O)O)cc(Cl)c2N1 (stereo not drawn)
[reply] 1.94
